- measured-on: CDK1B (Homo sapiens)
- Sequence (P06493 whole entry): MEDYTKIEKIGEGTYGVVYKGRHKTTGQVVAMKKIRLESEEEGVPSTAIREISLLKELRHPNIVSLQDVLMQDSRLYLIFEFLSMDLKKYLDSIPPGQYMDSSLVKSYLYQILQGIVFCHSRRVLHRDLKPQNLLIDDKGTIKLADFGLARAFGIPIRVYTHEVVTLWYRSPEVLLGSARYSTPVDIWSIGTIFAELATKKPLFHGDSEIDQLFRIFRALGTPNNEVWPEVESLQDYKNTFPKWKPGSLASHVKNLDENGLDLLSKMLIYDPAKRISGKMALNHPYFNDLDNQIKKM
- Sequence (P14635 whole entry partner): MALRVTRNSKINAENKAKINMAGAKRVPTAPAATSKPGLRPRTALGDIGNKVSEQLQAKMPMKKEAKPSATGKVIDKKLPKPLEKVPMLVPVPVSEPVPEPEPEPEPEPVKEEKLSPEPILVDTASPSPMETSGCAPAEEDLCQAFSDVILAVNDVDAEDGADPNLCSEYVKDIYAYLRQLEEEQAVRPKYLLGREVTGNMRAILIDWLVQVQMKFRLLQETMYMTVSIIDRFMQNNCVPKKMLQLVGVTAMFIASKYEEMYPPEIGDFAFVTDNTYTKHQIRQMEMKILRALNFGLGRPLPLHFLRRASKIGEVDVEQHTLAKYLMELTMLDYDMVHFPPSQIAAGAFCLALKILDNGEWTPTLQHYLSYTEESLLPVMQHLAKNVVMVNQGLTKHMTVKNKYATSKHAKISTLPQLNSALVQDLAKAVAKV
- stated-conditions: 1 µM
parameter-measured: activity (%)

CC(=O)N1CCN(c2ccc(Nc3nccc(-c4cnc5ccc(-c6ccoc6)cn45)n3)nc2)CC1 [Cmpd 25] | 95
Brc1ccc(Nc2nccc(-c3cnc4ccccn34)n2)nc1 [Cmpd 47] | 79
CC(=O)N1CCN(c2ccc(Nc3nccc(-c4cnc5ccc(-c6c[nH]c7ncccc67)cn45)n3)nc2)CC1 [Cmpd 42] | 95
CC(=O)N1CCN(c2ccc(Nc3nccc(-c4cnc5ccc(-c6cn(S(=O)(=O)c7ccccc7)c7ccccc67)cn45)n3)nc2)CC1 [Cmpd 34] | 99

A = CC(=O)N1CCN(c2ccc(Nc3nccc(-c4cnc5ccc(-c6cnn(C)c6)cn45)n3)nc2)CC1 [Cmpd 27]
B = CC(=O)N1CCN(c2ccc(Nc3ncc(F)c(-c4cnc5ccc(C)cn45)n3)nc2)CC1 [Cmpd 31]
Qu. Could you kindly indicate whether A or B has the higher activity value? Write down the label attached to your selection.
Ans. A
(A: 88%, B: 50%)

###

- measured-on: CDK7HMAT1 (Homo sapiens)
- Sequence (P50613 whole entry): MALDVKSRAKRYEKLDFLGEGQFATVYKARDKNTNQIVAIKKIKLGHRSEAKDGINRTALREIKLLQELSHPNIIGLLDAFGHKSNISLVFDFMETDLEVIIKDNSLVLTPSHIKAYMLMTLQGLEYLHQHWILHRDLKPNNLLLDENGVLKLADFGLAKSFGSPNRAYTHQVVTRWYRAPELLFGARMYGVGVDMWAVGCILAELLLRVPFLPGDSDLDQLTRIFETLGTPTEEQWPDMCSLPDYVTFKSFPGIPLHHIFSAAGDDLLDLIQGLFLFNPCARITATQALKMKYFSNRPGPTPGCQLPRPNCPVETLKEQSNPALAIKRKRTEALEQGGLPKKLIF
- Sequence (P51946 whole entry partner): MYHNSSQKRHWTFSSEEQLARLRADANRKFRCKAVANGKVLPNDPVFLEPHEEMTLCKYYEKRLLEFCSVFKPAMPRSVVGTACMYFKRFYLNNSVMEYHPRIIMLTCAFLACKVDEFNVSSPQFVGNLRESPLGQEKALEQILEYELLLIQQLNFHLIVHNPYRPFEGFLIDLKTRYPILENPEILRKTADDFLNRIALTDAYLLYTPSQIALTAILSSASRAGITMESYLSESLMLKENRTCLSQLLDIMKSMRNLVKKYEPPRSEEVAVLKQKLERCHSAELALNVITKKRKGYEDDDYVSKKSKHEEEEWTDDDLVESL
- Sequence (P51948 whole entry partner): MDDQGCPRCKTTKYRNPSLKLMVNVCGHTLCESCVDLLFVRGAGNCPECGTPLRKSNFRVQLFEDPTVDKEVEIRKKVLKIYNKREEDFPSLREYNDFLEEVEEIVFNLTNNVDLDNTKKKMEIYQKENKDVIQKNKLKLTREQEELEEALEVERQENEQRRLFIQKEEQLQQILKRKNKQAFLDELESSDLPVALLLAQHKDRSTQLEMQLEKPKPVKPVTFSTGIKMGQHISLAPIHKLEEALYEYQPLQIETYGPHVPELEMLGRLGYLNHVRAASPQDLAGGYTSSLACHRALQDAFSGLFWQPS
- stated-conditions: 10 µM
parameter-measured: activity (%)

a = CC(=O)N1CCN(c2ccc(Nc3nccc(-c4cnc5ccc(F)cn45)n3)nc2)CC1 [Cmpd 8]
b = CC(=O)N1CCN(c2ccc(Nc3nccc(-c4cnc5ccc(Br)cn45)n3)nc2)CC1 [Cmpd 10]
Qu. Could you kindly indicate whether a or b has the higher activity value? Write down the label attached to your selection.
Ans. a
(a: 82%, b: 55%)

I = CC(=O)N1CCN(c2ccc(Nc3nccc(-c4cnc5ccc(-c6cncnc6)cn45)n3)nc2)CC1 [Cmpd 16]
II = CC(=O)N1CCN(c2ccc(Nc3nccc(-c4cnc5ccc(-c6cnc(N)nc6)cn45)n3)nc2)CC1 [Cmpd 18]
Qu. Min activity? I | II Write down the label attached to your selection.
Ans. I
(I: 60%, II: 99%)

P = CC(=O)N1CCN(c2ccc(Nc3nccc(-c4cnc5ccc(-c6ccccc6)cn45)n3)nc2)CC1 [Cmpd 14]
Q = COc1ncc(-c2ccc3ncc(-c4ccnc(Nc5ccc(N6CCN(C(C)=O)CC6)cn5)n4)n3c2)cn1 [Cmpd 19]
Qu. Could you kindly indicate whether P or Q has the higher activity value? Write down the label attached to your selection.
Ans. P
(P: 78%, Q: 54%)

a = c1ccn2c(-c3ccnc(Nc4ccc(N5CCCCC5)cn4)n3)cnc2c1 [Cmpd 5]
b = c1ccc(Nc2nccc(-c3cnc4ccccn34)n2)nc1 [Cmpd 7]
Qu. Could you kindly indicate whether a or b has the higher activity value? Write down the label attached to your selection.
Ans. a

###

- measured-on: CDK2E1 (Homo sapiens, UniProt P24941)
- stated-conditions: 1 µM
parameter-measured: activity (%)

CC(=O)N1CCN(c2ccc(Nc3nccc(-c4cnc5ccc(-c6cccnc6)cn45)n3)nc2)CC1 [Cmpd 15] | 88
Ic1ccc(Nc2nccc(-c3cnc4ccccn34)n2)nc1 [Cmpd 53] | 99
CC(=O)N1CCN(c2ccc(Nc3nccc(-c4cnc5ccc(C(F)(F)F)cn45)n3)nc2)CC1 [Cmpd 11] | 97

###

- measured-on: CDK9/CyclinT1 (Homo sapiens, UniProt P50750)
- Sequence (P50750 whole entry, species assumed): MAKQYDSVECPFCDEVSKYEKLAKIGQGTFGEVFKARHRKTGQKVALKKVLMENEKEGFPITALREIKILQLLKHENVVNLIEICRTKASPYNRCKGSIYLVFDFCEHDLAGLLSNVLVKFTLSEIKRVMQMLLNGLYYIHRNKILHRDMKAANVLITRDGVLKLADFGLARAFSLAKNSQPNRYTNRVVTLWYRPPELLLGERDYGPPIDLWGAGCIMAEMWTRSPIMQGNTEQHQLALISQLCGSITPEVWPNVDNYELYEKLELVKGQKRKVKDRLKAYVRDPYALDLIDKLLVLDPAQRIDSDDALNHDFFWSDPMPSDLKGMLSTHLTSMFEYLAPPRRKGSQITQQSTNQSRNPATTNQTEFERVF
- Sequence (O60563 whole entry partner, species assumed): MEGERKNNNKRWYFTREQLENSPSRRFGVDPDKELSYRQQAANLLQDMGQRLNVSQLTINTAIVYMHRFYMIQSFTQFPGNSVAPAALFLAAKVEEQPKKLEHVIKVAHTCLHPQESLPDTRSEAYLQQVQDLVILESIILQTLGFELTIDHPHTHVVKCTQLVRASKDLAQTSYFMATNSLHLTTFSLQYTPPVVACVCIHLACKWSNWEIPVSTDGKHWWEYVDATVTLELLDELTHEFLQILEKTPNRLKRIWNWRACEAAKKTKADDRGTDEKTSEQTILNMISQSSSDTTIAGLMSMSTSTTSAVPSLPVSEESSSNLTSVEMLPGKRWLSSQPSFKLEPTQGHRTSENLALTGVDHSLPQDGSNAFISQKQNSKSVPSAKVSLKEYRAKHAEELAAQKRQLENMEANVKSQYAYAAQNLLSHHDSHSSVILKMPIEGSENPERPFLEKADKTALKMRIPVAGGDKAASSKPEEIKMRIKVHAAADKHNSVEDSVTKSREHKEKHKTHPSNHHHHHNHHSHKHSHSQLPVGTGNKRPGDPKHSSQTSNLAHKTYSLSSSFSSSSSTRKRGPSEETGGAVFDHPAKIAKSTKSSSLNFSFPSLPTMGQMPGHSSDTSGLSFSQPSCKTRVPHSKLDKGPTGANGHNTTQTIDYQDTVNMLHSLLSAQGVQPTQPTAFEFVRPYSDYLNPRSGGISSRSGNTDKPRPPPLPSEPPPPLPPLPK
- assay-text: ADP Glo kinase assay, CDK9/CyclinT1
- stated-conditions: CDK9T1; apparent Ki calculated from Km (ATP) and IC50; read-out: CDK inhibition Ki
parameter-measured: Ki (nM)

CC(=O)N1CCN(c2ccc(Nc3ncc(F)c(-c4cnc5ccc(C)cn45)n3)nc2)CC1 | 308
CC(=O)N1CCN(c2ccc(Nc3nccc(-c4cnc5ccc(-c6cn[nH]c6)cn45)n3)nc2)CC1 | 125

I = CC(=O)N1CCN(c2ccc(Nc3nccc(-c4cnc5ccc(F)cn45)n3)nc2)CC1
II = CC(=O)N1CCN(c2ccc(Nc3nccc(-c4cnc5ccc(-c6cc[nH]c6)cn45)n3)nc2)CC1
III = c1ccc(Nc2nccc(-c3cnc4ccccn34)n2)nc1
IV = CN1CCN(c2ccc(Nc3nccc(-c4cnc5ccc(Br)cn45)n3)nc2)CC1
V = CC(=O)N1CCN(c2ccc(Nc3nccc(-c4cnc5ccc(-c6cccnc6)cn45)n3)nc2)CC1
Qu. Task for the reader: rank each entry by its Ki, from the minimum upward. # output: labels, in the requested order
Ans. III, IV, I, II, V
(III: 41 nM, IV: 111 nM, I: 289 nM, II: 421 nM, V: 680 nM)

1 = CC(=O)N1CCN(c2ccc(Nc3nccc(-c4cnc5ccc(-c6cccs6)cn45)n3)nc2)CC1
2 = CC(=O)N1CCCN(c2ccc(Nc3nccc(-c4cnc5ccccn45)n3)nc2)CC1
Qu. Min Ki? 1 | 2 Write down the label attached to your selection.
Ans. 1

1 = c1ccn2c(-c3ccnc(Nc4ccc(N5CCNCC5)cn4)n3)cnc2c1
2 = CC(=O)N1CCN(c2ccc(Nc3nccc(-c4cnc5ccccn45)n3)nc2)CC1
Qu. Min Ki? 1 | 2 Write down the label attached to your selection.
Ans. 1
(1: 37 nM, 2: 519 nM)

A = CN1CCN(c2ccc(Nc3nccc(-c4cnc5ccc(-c6cn[nH]c6)cn45)n3)nc2)CC1
B = CC(=O)N1CCN(c2ccc(Nc3nccc(-c4cnc5ccc(-c6ccoc6)cn45)n3)nc2)CC1
C = CN1CCN(c2ccc(Nc3nccc(-c4cnc5ccc(-c6cncnc6)cn45)n3)nc2)CC1
D = CC(=O)N1CCN(c2ccc(Nc3nccc(-c4cnc5ccc(-c6c[nH]c7ncccc67)cn45)n3)nc2)CC1
Qu. Order the items by recorded Ki; the first position goes to the largest value. # output: labels, in the requested order
Ans. D, C, B, A
(D: 607 nM, C: 345 nM, B: 71 nM, A: 41 nM)

###

- measured-on: CDK9/CyclinT1 (Homo sapiens)
- assay-text: ADP Glo kinase assay, CDK9/CyclinT1
- Assay type: biochemical
- stated-conditions: CDK9T1; compound at 1 μM (values marked *); read-out: residual enzymatic activity (%) at 1 μM*
parameter-measured: remaining activity at 1 µM (%)

Record excerpt, results attached:
CC(=O)N1CCN(c2ccc(Nc3nccc(-c4cnc5ccc(-c6coc7ccccc67)cn45)n3)nc2)CC1 [Cmpd 33] | 72
CC(=O)N1CCN(c2ccc(Nc3nccc(-c4cnc5ccc(-c6cn(S(=O)(=O)c7ccccc7)c7ncccc67)cn45)n3)nc2)CC1 [Cmpd 38] | 85
CC(=O)N1CCN(c2ccc(Nc3nccc(-c4cnc5ccc(-c6csc7ccccc67)cn45)n3)nc2)CC1 [Cmpd 35] | 91
CC(=O)N1CCN(c2ccc(Nc3nccc(-c4cnc5ccc(-c6ccsc6)cn45)n3)nc2)CC1 [Cmpd 26] | 36
CC(=O)N1CCN(c2ccc(Nc3nccc(-c4cnc5ccc(-c6cc7ccccc7[nH]6)cn45)n3)nc2)CC1 [Cmpd 37] | 39

a = CC(=O)N1CCN(c2ccc(Nc3ncc(F)c(-c4cnc5ccc(F)cn45)n3)nc2)CC1 [Cmpd 30]
b = CC(=O)N1CCN(c2ccc(Nc3nccc(-c4cnc5ccc(-c6cccc7[nH]ccc67)cn45)n3)nc2)CC1 [Cmpd 36]
c = CC(=O)N1CCN(c2ccc(Nc3nccc(-c4cnc5ccc(-c6cc7ccccc7n6C)cn45)n3)nc2)CC1 [Cmpd 39]
Qu. Task for the reader: rank each entry by its remaining activity at 1 µM, from the minimum upward. # output: labels, in the requested order
Ans. a, c, b

###

- measured-on: CDK6/D3 (Homo sapiens)
- Sequence (Q00534 whole entry, species assumed): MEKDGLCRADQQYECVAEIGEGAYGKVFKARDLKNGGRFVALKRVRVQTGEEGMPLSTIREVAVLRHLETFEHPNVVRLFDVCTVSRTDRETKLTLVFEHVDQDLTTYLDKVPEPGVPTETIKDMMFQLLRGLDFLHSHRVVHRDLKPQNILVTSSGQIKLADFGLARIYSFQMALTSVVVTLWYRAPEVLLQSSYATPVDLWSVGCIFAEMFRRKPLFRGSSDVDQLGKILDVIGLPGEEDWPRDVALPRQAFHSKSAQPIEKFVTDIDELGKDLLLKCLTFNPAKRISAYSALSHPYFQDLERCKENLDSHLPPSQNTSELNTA
- Sequence (P30281 whole entry partner, species assumed): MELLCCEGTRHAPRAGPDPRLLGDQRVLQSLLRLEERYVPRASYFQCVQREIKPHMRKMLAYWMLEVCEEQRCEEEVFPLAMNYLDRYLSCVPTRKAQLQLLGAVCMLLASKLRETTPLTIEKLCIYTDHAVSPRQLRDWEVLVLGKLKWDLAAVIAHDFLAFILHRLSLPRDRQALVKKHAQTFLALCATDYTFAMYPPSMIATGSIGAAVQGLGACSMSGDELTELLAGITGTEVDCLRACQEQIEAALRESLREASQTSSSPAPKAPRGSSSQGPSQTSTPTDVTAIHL
- assay-text: ADP Glo kinase assay, CDK6/D3
- Format: biochemical
- stated-conditions: CDK6D3; compound at 1 μM (values marked *); read-out: residual enzymatic activity (%) at 1 μM*
parameter-measured: remaining activity at 1 µM (%)

CC(=O)N1CCN(c2ccc(Nc3nccc(-c4cnc5ccc(I)cn45)n3)nc2)CC1 [Cmpd 43] | 70
CC(=O)N1CCN(c2ccc(Nc3nccc(-c4cnc5ccc(-c6csc7ccccc67)cn45)n3)nc2)CC1 [Cmpd 35] | 76
Brc1ccc(Nc2nccc(-c3cnc4ccccn34)n2)nc1 [Cmpd 47] | 85
CC(=O)N1CCN(c2ccc(Nc3nccc(-c4cnc5ccc(-c6coc7ccccc67)cn45)n3)nc2)CC1 [Cmpd 33] | 79
CC(=O)N1CCN(c2ccc(Nc3nccc(-c4cnc5ccc(-c6ccsc6)cn45)n3)nc2)CC1 [Cmpd 26] | 73
CC(=O)N1CCN(c2ccc(Nc3nccc(-c4cnc5ccc(Nc6ccccc6)cn45)n3)nc2)CC1 [Cmpd 28] | 80
CC(=O)N1CCN(c2ccc(Nc3ncc(C)c(-c4cnc5ccccn45)n3)nc2)CC1 [Cmpd 44] | 68
CS(=O)(=O)N1CCN(c2ccc(Nc3nccc(-c4cnc5ccccn45)n3)nc2)CC1 [Cmpd 48] | 71

###

- measured-on: CDK9/CyclinT1 (Homo sapiens, UniProt P50750)
- assay-text: ADP Glo kinase assay, CDK9/CyclinT1
- Type: biochemical
- stated-conditions: CDK9T1; compound at 10 μM; read-out: residual enzymatic activity (%) at 10 μM
parameter-measured: remaining activity at 10 µM (%)

Record excerpt, results attached:
COc1ncc(-c2ccc3ncc(-c4ccnc(Nc5ccc(N6CCN(C(C)=O)CC6)cn5)n4)n3c2)cn1 | 33
CC(=O)N1CCN(c2ccc(Nc3nccc(-c4cnc5ccc(-c6cnc(N7CCN(C)CC7)nc6)cn45)n3)nc2)CC1 | 38
CC(=O)N1CCN(c2ccc(Nc3nccc(-c4cnc5ccc(-c6ccco6)cn45)n3)nc2)CC1 | 29
c1ccn2c(-c3ccnc(Nc4ccc(N5CCOCC5)cn4)n3)cnc2c1 | 28
CC(=O)N1CCN(c2ccc(Nc3nccc(-c4cnc5ccc(Cl)cn45)n3)nc2)CC1 | 28
CC(=O)N1CCN(c2ccc(Nc3nccc(-c4cnc5ccc(C(F)(F)F)cn45)n3)nc2)CC1 | 32

a = CC(=O)N1CCN(c2ccc(Nc3nccc(-c4cnc5ccc(Br)cn45)n3)nc2)CC1
b = Brc1ccc(Nc2nccc(-c3cnc4ccccn34)n2)nc1
Qu. Min remaining activity at 10 µM? a | b Write down the label attached to your selection.
Ans. a
